Molecular target: T1, Human Epidermal Growth Factor Receptor 2 (HER2) (human, UniProt P04626 23-1255)
T1 construct: whole, on cells; also called HER2 receptor
Experiment: flow cytometry, fluorescein labeled peptide on SK-BR-3 cells, on ice
Bridges are numbered along the chain shown (N, C = ends). Where no end group is shown, it is not given here.
Attribute measured: pKd
Schema: pKd number; meaning minus log10 of the concentration expressed in molar units.

Prompt: State, in one line, measured pKd of YCDGFYACYMDV (disulfide 2-8 (inferred); also: fluorescein label, position not given here) [HER2-antagonist peptide (HER2-pep), fluorescein labeled]
Response: 5.76

# credit: patent US20160038607A1
